Collected pIC50 values appear next to each entry.
- Target or test system: Skeletal Myofibril ATPase (Rabbit Psoas myofibrils)
- Experiment description: Skeletal Myofibril ATPase Assay
- Assay context: PK/LDH-coupled NADH absorbance at 340 nm
pIC50: −log10 of the molar value.

Examples from the recorded data:
molecule_smiles=Cc1cccc(-c2noc(-c3ccc(=O)n(Cc4ccc(Cl)nc4)c3)n2)c1 target_or_test_system="Skeletal Myofibril ATPase (Rabbit Psoas myofibrils)" quantity_measured=pIC50 result="≥ 5.00"
molecule_smiles=CCNC(=O)Cn1nc(-c2nc(-c3cncc(C(F)(F)F)c3)no2)ccc1=O target_or_test_system="Skeletal Myofibril ATPase (Rabbit Psoas myofibrils)" quantity_measured=pIC50 result="≥ 5.00"
molecule_smiles=Cc1noc(-c2ccc(=O)n(Cc3ccccc3F)n2)n1 target_or_test_system="Skeletal Myofibril ATPase (Rabbit Psoas myofibrils)" quantity_measured=pIC50 result="4.00 to 5.00"

Query: Quick one: pIC50 of O=C(Cn1nc(-c2cccs2)ccc1=O)Nc1ccc2cc[nH]c2c1 ?
Response: < 4.00

Query: State the recorded pIC50 for this entry: O=c1ccc(-c2nc(-c3ccc(Cl)cc3)no2)cn1Cc1ccc(Cl)cc1
Response: < 3.92
